- experiment.notes: Acute toxicity LD50 (Litchfield and Wilcoxon)
- test.parameters: in vivo
Where a name gives a salt, the structure may show the parent alone.
Measured LD50 accompanies every entry in the list below.

compound | LD50 / mg/kg
COc1ccc(CC(C)NCC(O)c2cc(N)cc(CO)c2)cc1 (centres unmarked) [VAL 5000/PM, dihydrochloride] | 295
CC(C)NCC(O)c1cc(O)cc(O)c1 (centres unmarked) [Orciprenaline, reference compound] | 380
